# EXPERIMENT: Two-compartment PK model fitted to plasma concentration of Drug-A (Experiment-A)
# CONDITION_LABEL: male, athymic nude, mouse, plasma, iv, 30 mg/kg, Vd (apparent volume of distribution of the central compartment), mouse 88; 30 mg/kg iv-bolus q4dx3
RECORDED_ENDPOINT: Vd (L/kg)
Reply with just the number (in L/kg).

Could you tell me which Vd is on file for "CC(=O)O[C@H]1C(=O)[C@@]2(C)[C@H]([C@H](OC(=O)c3ccccc3)[C@]3(O)C[C@H](OC(=O)[C@H](O)[C@@H](NC(=O)c4ccccc4)c4ccccc4)C(C)=C1C3(C)C)[C@]1(OC(C)=O)CO[C@@H]1C[C@@H]2O" ?
0.578

---

# EXPERIMENT: Two-compartment PK model fitted to plasma concentration of Drug-A (Experiment-A)
# CONDITION_LABEL: male, athymic nude, mouse, plasma, iv, 40 mg/kg, Vd (apparent volume of distribution of the central compartment), mouse 81; 40 mg/kg iv-bolus q4dx3
RECORDED_ENDPOINT: Vd (L/kg)
Number only, in L/kg; omit the unit.

# input molecule: "CC(=O)O[C@H]1C(=O)[C@@]2(C)[C@H]([C@H](OC(=O)c3ccccc3)[C@]3(O)C[C@H](OC(=O)[C@H](O)[C@@H](NC(=O)c4ccccc4)c4ccccc4)C(C)=C1C3(C)C)[C@]1(OC(C)=O)CO[C@@H]1C[C@@H]2O" ; wanted: its Vd
0.502

---

# EXPERIMENT: Two-compartment PK model fitted to plasma concentration of Drug-A (Experiment-A)
# CONDITION_LABEL: male, athymic nude, mouse, plasma, iv, 20 mg/kg, Vd, mean, dose 20 mg/kg iv-bolus q4dx3; mean of four mice
RECORDED_ENDPOINT: Vd (L/kg)
Quick reminder: number only, in L/kg, skip the unit.

Please look up its Vd: CC(=O)O[C@H]1C(=O)[C@@]2(C)[C@H]([C@H](OC(=O)c3ccccc3)[C@]3(O)C[C@H](OC(=O)[C@H](O)[C@@H](NC(=O)c4ccccc4)c4ccccc4)C(C)=C1C3(C)C)[C@]1(OC(C)=O)CO[C@@H]1C[C@@H]2O [Drug-A, paclitaxel]
2.94

---

# EXPERIMENT: Two-compartment PK model fitted to plasma concentration of Drug-A (Experiment-A)
# CONDITION_LABEL: male, athymic nude, mouse, plasma, iv, 30 mg/kg, Vd (apparent volume of distribution of the central compartment), mouse 59; 30 mg/kg iv-bolus q4dx3
RECORDED_ENDPOINT: Vd (L/kg)
Output spec: scalar in L/kg, unitless text.

Which value of Vd has been reported for CC(=O)O[C@H]1C(=O)[C@@]2(C)[C@H]([C@H](OC(=O)c3ccccc3)[C@]3(O)C[C@H](OC(=O)[C@H](O)[C@@H](NC(=O)c4ccccc4)c4ccccc4)C(C)=C1C3(C)C)[C@]1(OC(C)=O)CO[C@@H]1C[C@@H]2O [Drug-A, paclitaxel] in the records?
0.373

---

# EXPERIMENT: Two-compartment PK model fitted to plasma concentration of Drug-A (Experiment-A)
# CONDITION_LABEL: male, athymic nude, mouse, plasma, iv, 40 mg/kg, Vd (apparent volume of distribution of the central compartment), mouse 78; 40 mg/kg iv-bolus q4dx3
RECORDED_ENDPOINT: Vd (L/kg)
Expressed in L/kg, but write only the number.

Look up Vd: "CC(=O)O[C@H]1C(=O)[C@@]2(C)[C@H]([C@H](OC(=O)c3ccccc3)[C@]3(O)C[C@H](OC(=O)[C@H](O)[C@@H](NC(=O)c4ccccc4)c4ccccc4)C(C)=C1C3(C)C)[C@]1(OC(C)=O)CO[C@@H]1C[C@@H]2O"
1.87

---

# EXPERIMENT: Two-compartment PK model fitted to plasma concentration of Drug-A (Experiment-A)
# CONDITION_LABEL: male, athymic nude, mouse, plasma, iv, 40 mg/kg, Vd, mean, dose 40 mg/kg iv-bolus q4dx3; mean of four mice
RECORDED_ENDPOINT: Vd (L/kg)
Please give a number only; it is taken to be in L/kg.

Vd for "CC(=O)O[C@H]1C(=O)[C@@]2(C)[C@H]([C@H](OC(=O)c3ccccc3)[C@]3(O)C[C@H](OC(=O)[C@H](O)[C@@H](NC(=O)c4ccccc4)c4ccccc4)C(C)=C1C3(C)C)[C@]1(OC(C)=O)CO[C@@H]1C[C@@H]2O" ?
1.92

---

# EXPERIMENT: Two-compartment PK model fitted to plasma concentration of Drug-A (Experiment-A)
# CONDITION_LABEL: male, athymic nude, mouse, plasma, iv, 30 mg/kg, Vd (apparent volume of distribution of the central compartment), mouse 64; 30 mg/kg iv-bolus q4dx3
RECORDED_ENDPOINT: Vd (L/kg)
// return numeric value only (unit: L/kg, not printed)

Need Vd, item "CC(=O)O[C@H]1C(=O)[C@@]2(C)[C@H]([C@H](OC(=O)c3ccccc3)[C@]3(O)C[C@H](OC(=O)[C@H](O)[C@@H](NC(=O)c4ccccc4)c4ccccc4)C(C)=C1C3(C)C)[C@]1(OC(C)=O)CO[C@@H]1C[C@@H]2O"
0.745

---

# EXPERIMENT: Two-compartment PK model fitted to plasma concentration of Drug-A (Experiment-A)
# CONDITION_LABEL: male, athymic nude, mouse, plasma, iv, 30 mg/kg, Vd (apparent volume of distribution of the central compartment), mouse 28; 30 mg/kg iv-bolus q4dx3
RECORDED_ENDPOINT: Vd (L/kg)
Please give a number only; it is taken to be in L/kg.

Which value of Vd has been reported for CC(=O)O[C@H]1C(=O)[C@@]2(C)[C@H]([C@H](OC(=O)c3ccccc3)[C@]3(O)C[C@H](OC(=O)[C@H](O)[C@@H](NC(=O)c4ccccc4)c4ccccc4)C(C)=C1C3(C)C)[C@]1(OC(C)=O)CO[C@@H]1C[C@@H]2O [Drug-A, paclitaxel] in the records?
0.528

---

# EXPERIMENT: Two-compartment PK model fitted to plasma concentration of Drug-A (Experiment-A)
# CONDITION_LABEL: male, athymic nude, mouse, plasma, iv, 20 mg/kg, Vd (apparent volume of distribution of the central compartment), mouse 31; 20 mg/kg iv-bolus q4dx3
RECORDED_ENDPOINT: Vd (L/kg)
Please reply with the bare figure in L/kg and do not write the unit itself.

I would be grateful if you could share the reported Vd for "CC(=O)O[C@H]1C(=O)[C@@]2(C)[C@H]([C@H](OC(=O)c3ccccc3)[C@]3(O)C[C@H](OC(=O)[C@H](O)[C@@H](NC(=O)c4ccccc4)c4ccccc4)C(C)=C1C3(C)C)[C@]1(OC(C)=O)CO[C@@H]1C[C@@H]2O" .
1.34

---

# EXPERIMENT: Two-compartment PK model fitted to plasma concentration of Drug-A (Experiment-A)
# CONDITION_LABEL: male, athymic nude, mouse, plasma, iv, 20 mg/kg, Vd (apparent volume of distribution of the central compartment), mouse 0; 20 mg/kg iv-bolus q4dx3
RECORDED_ENDPOINT: Vd

Fill blank: measured Vd of the molecule "CC(=O)O[C@H]1C(=O)[C@@]2(C)[C@H]([C@H](OC(=O)c3ccccc3)[C@]3(O)C[C@H](OC(=O)[C@H](O)[C@@H](NC(=O)c4ccccc4)c4ccccc4)C(C)=C1C3(C)C)[C@]1(OC(C)=O)CO[C@@H]1C[C@@H]2O" is ____.
9.51 L/kg
